test system: IL-1β; assay: PBMC assay: inhibition of IL-1β release after LPS stimulation (MSD); assay type: cell-based; conditions: Homo sapiens, PBMC, 6 h, human PBMCs, 100 ng/ml LPS for 6 hrs, MSD, 96 well plates; read-out: IL1β IC50
Classify: Yes when IC50 is strictly less than 300 nM; No when IC50 is not.

> print(dat)
                                   molecule  discrete.label
1  CCN1CC[C@H](O)[C@H](NC(=O)Cn2nc(C(C)C)c3cc(Br)ccc3c2=O)C1 (stereo in doubt)             Yes
2  CCc1nn(CC(=O)Nc2ccc3nncn3c2)c(=O)c2ccc(C3CC3)cc12             Yes
3  CC1(c2nn(CC(=O)Nc3ccc4nncn4c3)c(=O)c3ccc(C(F)(F)F)cc23)CC1              No
4  O=C(Cn1nc(C2CC2)c2cc(C(F)(F)F)ccc2c1=O)Nc1ccc2nncn2n1             Yes
5  Cc1cc2nccn2cc1NC(=O)Cn1nc(C(C)C)c2cc(C(F)(F)F)ccc2c1=O              No
6  CC(C)c1nn(CC(=O)N[C@H]2C[C@@](C)(O)C2)c(=O)c2ccc(C(C)(C)C)cc12              No

Q: API: query returns whether the molecule falls strictly under 300 nM in IC50. Query: CCN1C[C@@H](F)C[C@H](NC(=O)Cn2nc(C(C)C)c3cc(C(F)(F)F)ccc3c2=O)C1 (single isomer, unassigned)
A: No

Q: Answer whether the molecule O=C(Cn1nc(C2CC2)c2cc(C(F)(F)F)ccc2c1=O)Nc1ccc2nncn2c1 has IC50 strictly less than 300 nM
A: Yes

----------
tested on: IL-1β; assay: PBMC assay: inhibition of IL-1β release after LPS stimulation (MSD); type: cell-based; details: Homo sapiens, PBMC, 6 h, human PBMCs, 100 ng/ml LPS for 6 hrs, MSD, 96 well plates; read-out: IL1β IC50
Criterion: IC50 strictly under 1 µM. Met: YES. Not met: NO.

Reference set, count: 2
> print(dat)
                                   compound  discrete.label
1  CC(C)c1nn(CC(=O)Nc2ccc3nn(C)nc3c2)c(=O)c2ccc(C(F)(F)F)cc12 [Final Cpd X169]              NO
2  CC(C)c1nn(CC(=O)Nc2ccc(C(F)(F)F)nn2)c(=O)c2ccc(C(F)(F)F)cc12 [Final Cpd X161]              NO

Q: Is 1 µM strictly greater than the compound's reported IC50? compound: COC(C)c1nn(CC(=O)Nc2ccc3nncn3c2)c(=O)c2ccc(C(F)(F)F)cc12 (stereo not shown) [Final Cpd X102]
A: NO

Q: Determine whether this compound shows IC50 lower than 1 µM (ties excluded): CC(C)c1nn(CC(=O)N[C@@H]2CCCN(C3CC3)C2)c(=O)c2ccc(Br)cc12 [X-1035]
A: YES

Q: Lab note: confirm whether the reported IC50 for this compound is below 1 µM, equality not counting. compound: CC(C)c1nn(CC(=O)Nc2ccc3nc(C(F)F)cn3n2)c(=O)c2ccc(C(F)(F)F)cc12 [Final Cpd X118]
A: NO

Q: Report whether reported IC50 is lower than 1 µM (strictly) for CC(C)c1nn(CC(=O)N[C@H]2C[C@@](C)(O)C2)c(=O)c2ccc(C(C)(F)F)cc12 [X-1062]
A: YES

Q: Bench note: check whether CC(C)c1nn(CC(=O)Nc2ccc3nncn3c2)c(=O)c2ccc(C(C)(C)O)cc12 [X-1045] shows IC50 below 1 µM
A: NO

Q: Identify whether the compound COC(C)c1ccc2c(=O)n(CC(=O)Nc3ccncn3)nc(C(C)C)c2c1 (stereo not shown) [X-1056] records IC50 below 1 µM.
A: NO

Q: Determine if CC[C@H](C)c1nn(CC(=O)Nc2ccc3nncn3c2)c(=O)c2ccc(C(F)(F)F)cc12 (single isomer, unassigned) [Final Cpd X43] shows IC50 strictly lower than 1 µM.
A: YES

Q: Lab note: confirm whether the reported IC50 for this compound is below 1 µM, equality not counting. compound: CC(C)c1nn(CC(=O)Nc2ccc(C(F)F)nn2)c(=O)c2ccc(C(F)(F)F)cc12 [Final Cpd X176]
A: NO
